Values from the kinase profiling compilation of Christmann-Franck et al. (2016)

Biological target: KDR (human)
Assay: KINOMEscan competition binding
Conditions: compound 10.0 µM
// NB: equality with 40% counts as 0.0; only kinase still bound, per cent of control strictly below is 1.0

Q: I wonder whether Cc1cn(-c2cc(C(=O)Nc3ccc(C)c(NC(=O)c4ccno4)c3)cc(C(F)(F)F)c2)cn1 has kinase still bound, per cent of control below 40%. Can you tell?
Ans: 0.0

Q: I wonder whether CNC(=O)Nc1ccc(-c2nc(N3CC4CCC(C3)O4)c3cnn(C4CCC5(CC4)OCCO5)c3n2)cc1 has kinase still bound, per cent of control below 40%. Can you tell?
Ans: 0.0

Q: I wonder whether C=CC(=O)Nc1ccc(C(=O)c2sc(Nc3ccc(N4CCN(C)CC4)cc3OC)nc2N)cc1 has kinase still bound, per cent of control below 40%. Can you tell?
Ans: 0.0

Q: I wonder whether N#C/C(=C1/Nc2ccccc2S1)c1ccnc(NCCc2cccnc2)n1 has kinase still bound, per cent of control below 40%. Can you tell?
Ans: 0.0

Q: I wonder whether COc1cc(N2CCC(C(N)=O)CC2)ccc1Nc1nc(N)c(Cl)c(Nc2ccccc2S(=O)(=O)C(C)C)n1 has kinase still bound, per cent of control below 40%. Can you tell?
Ans: 0.0

Q: I wonder whether CCc1nc(-c2cccc(C)c2)c(-c2ccnc(NC(=O)c3ccccc3)c2)s1 has kinase still bound, per cent of control below 40%. Can you tell?
Ans: 1.0

Q: I wonder whether COc1cc(C)c(Sc2cnc(NC(=O)c3ccc(CNC(C)C(C)C)cc3)s2)cc1C(=O)N1CCN(C(C)=O)CC1 (stereo unspecified) has kinase still bound, per cent of control below 40%. Can you tell?
Ans: 0.0

Q: I wonder whether N#Cc1cc(-c2ccnc(Nc3ccc(-n4cnc(-c5cccnc5)n4)cc3)n2)cc(N2CCOCC2)c1 has kinase still bound, per cent of control below 40%. Can you tell?
Ans: 0.0

Q: I wonder whether CCOc1cc(N2CCC(O)CC2)ccc1Nc1ncc2c(n1)N(C)c1ccccc1C(=O)N2C has kinase still bound, per cent of control below 40%. Can you tell?
Ans: 0.0

Q: I wonder whether COc1ccc(N(C(=O)Oc2cc(C(=O)Nc3cccc(C(F)(F)F)c3)ccc2C)c2ccnc(Nc3ccc(N4CCN(C)CC4)cc3)n2)c(OC)c1 has kinase still bound, per cent of control below 40%. Can you tell?
Ans: 1.0

Q: I wonder whether CCN1CCN(Cc2ccc(NC(=O)c3ccc(C)c(/C=C/c4cnc5[nH]ccc5c4OC)c3)cc2C(F)(F)F)CC1 has kinase still bound, per cent of control below 40%. Can you tell?
Ans: 1.0

Q: I wonder whether CC1=C(C(=O)Nc2cc3cn[nH]c3cc2F)C(c2ccc(C(F)(F)F)cc2)CC(=O)N1 (stereo unspecified) has kinase still bound, per cent of control below 40%. Can you tell?
Ans: 0.0

Q: I wonder whether CCN(CCO)CCCOc1ccc2c(Nc3cc(CC(=O)Nc4cccc(F)c4)[nH]n3)ncnc2c1 has kinase still bound, per cent of control below 40%. Can you tell?
Ans: 1.0

Q: I wonder whether O=c1[nH]c2ccccc2n1C1CCN(Cc2ccc(-c3nc4cc5[nH]cnc5cc4nc3-c3ccccc3)cc2)CC1 has kinase still bound, per cent of control below 40%. Can you tell?
Ans: 0.0

Q: I wonder whether COc1cc2ncnc(Nc3cccc(Cl)c3)c2cc1OC has kinase still bound, per cent of control below 40%. Can you tell?
Ans: 1.0

Q: I wonder whether COc1cc2c(Nc3ccc(NC(=O)c4ccccc4)cc3)ncnc2cc1OCCCN1CCOCC1 has kinase still bound, per cent of control below 40%. Can you tell?
Ans: 1.0
